- measuredTarget: Mdm2/p53 complex (Homo sapiens, UniProt Q00987)
- Sequence (Q00987 1-118, one chain of several): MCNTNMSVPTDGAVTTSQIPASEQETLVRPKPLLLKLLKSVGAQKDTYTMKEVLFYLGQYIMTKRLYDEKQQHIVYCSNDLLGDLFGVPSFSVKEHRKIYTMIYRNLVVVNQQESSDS
- test: NMR-based antagonist induced dissociation assay
- condition: read-out: dissociation constant (Kd) of the compound-Mdm2 interaction; AIDA-NMR; 14 μM Mdm2/p53 complex mixed with compound in 1:1 molar ratio
pKd: −log10 of the molar value.
observedProperty: pKd

P = O=C(NCc1ccc(Cl)c(Cl)c1)C1C(=O)Nc2sc3c(c2C(=O)N1Cc1ccc(Cl)cc1)CCCC3 (centres unmarked)
Q = O=C(NCc1ccccc1)C1C(=O)Nc2sc3c(c2C(=O)N1Cc1ccc(Cl)cc1)CCCC3 (centres unmarked)
Exam item: Which value of pKd is smaller, the one for P or the one for Q ? API: response body contains the label of the selected item.
Marked response: Q

----------
- measuredTarget: Mdm2 (Homo sapiens, UniProt Q00987)
- Sequence (Q00987 1-118): as the sequence (Q00987 1-118, one chain of several) above
pKi: −log10 of the molar value.
observedProperty: pKi

[[record]]
compound = "O=C(NCc1ccccc1)C1C(=O)Nc2sc3c(c2C(=O)N1Cc1ccc(Cl)cc1)CCCC3 (centres unmarked) [5a-7]"
recordedmeasurement = 4.40

[[record]]
compound = "O=C(NCc1ccc(Cl)c(Cl)c1)C1C(=O)Nc2sc3c(c2C(=O)N1Cc1ccc(Cl)cc1)CCCC3 (centres unmarked) [5a-8]"
recordedmeasurement = 4.35

